Overview of recorded z-score for various sequences
- Assay name: Components of the Cytosolic LPS Sensing Pathway: Gene Identification via Genome-wide siRNA Screen
- Experimental setup: RAW264.7 macrophages, IL-1a HTRF, actives lie on both sides, screened at 100 nM (by protocol), cells primed 5 h with Pam3CSK4 first
- Procedure: Non-canonical inflammasome activation by cytosolic LPS is a critical component of the host response to Gram-negative bacterial infection, however we lack a comprehensive understanding of the cellular processes that control this pathway. […] Lipofectamine RNAiMAX Transfection Reagent ([…]; Invitrogen) was added in […] serum-free, antibiotic-free media to plate wells using a Thermo Scientific Matrix WellMate and Microplate Stacker. […] The plates were read on an EnVision plate reader (PerkinElmer). […]
Among all 53,000 sequences or so, about 3,700 (7%) were called active. The full list was thinned out, with actives kept by preference.
Endpoint: z-score

1) GGAUCAUUGACAGUGAAUATT against Blk: -1.35
2) GGUGUUUCAUAAGAAGGAATT against 1700010H22Rik: -1.01
3) CCAGAGUACAGUGUAGUCATT against Hspb6: 0.508
4) GGUCCAAAGAAAGACCCAUTT against Cypt4: -0.131
5) CGUGACCAUCAGGCUAAAGTT against Ecrg4: 3.42
6) GGACACACUCUACUUCCCATT against Mrgprg: -0.196
7) GGAAGAUAUUGCUGUUGGATT against Mbd4: 0.823
8) GGAGAAUGCUAAGGUUACUTT against Pcdhga9: 0.269
9) GCCUUGAUCCUACUGUAACTT against Amigo3: 2.12
10) GGACUUGACCUCAAGGGAATT against Sox6: 2.35
11) CCCACUCCGAUAUACUGCUTT against Olfr447: 2.2
12) GAUACCAAGCUAAAAGAUCTT against Ear10: 0.0579
13) GGUCCAUGCUCUCAUGAGUTT against Batf2: -1.34
14) GGAUGAUUCUGGGUUACAGTT against Pwwp3a: -2.26
15) GGACUCUUUUCUACGUGGATT against Klhl1: 2.54
16) GGUGUCUGGAGGGAGAUUUTT against Peli3: 0.245
17) GCAUUUAAUGGCAUUACUGTT against Otol1: 0.596
18) CCUCAUUGGUUUGACCCAGTT against Hsd17b6: 0.172
19) GCUGUUGGUCUGAUAGCUUTT against Hadhb: 0.378
20) GGUUAUAGACAAGAUCGAUTT against Comp: 0.536
21) GCAUACCUAGACUGAAAACTT against Rilpl2: -0.477
22) GCCAGUUUUGGUAUCCCGUTT against Lpcat2: -1.2
23) GGAGUGGCCAUUAAAUUUATT against Slc17a8: 2.75
24) CGUGGCUAGGUUAUUUAAATT against Htr1d: 1.01
25) GGUUAAGAGCGUACGUUUUTT against Tmem204: 1.46
26) GGUACUCACAUCUCCAAAGTT against Zfp948: -0.881
27) GCAUUAAUUGCUUCUCUUATT against Nup155: -2.35
28) GCUGGGUCAAACAUGACGUTT against Klhl17: 0.452
29) CCUAACCAAGAUCCAAUCUTT against 6330549D23Rik: -2.85
30) CCCACUGCCAAGUACAAUGTT against Dmwd: 1.44
31) CGAGGGAUAAGAGUCUACGTT against Ubxn11: 1.45
32) GGGUGUCAACCCUUUAGAUTT against C130026I21Rik: 0.685
33) GCAGAUUGCUCAGAUUACCTT against Brip1: 0.407
34) GGCAAAAAGGCAGUAGCCATT against Ncl: 0.644
35) GGCUUAAUUACACAUGUUCTT against Il6: -1.09
36) GGCUACGCCCACAAAAGCUTT against H1f6: -2.26
37) GUUUCUGGGUGAGCGCGAUTT against Fzd2: 2.29
38) GGAAGAAGAAGGUGUAACCTT against Defb39: 0.567
39) GGAAGGAGCUUCGAAAAAATT against Pex16: 0.129
40) GUUACAGCUGCCUUUGUUUTT against Olfr893: -2.49
41) GCACUUAUGAUGUCCUAUUTT against Sema4b: 0.606
42) CCCUAAGUAUAGGAUCGGATT against Macroh2a1: -1.07
43) CCUUCUUAUUGCUUAACCCTT against Scd3: 0.279
44) UCUUUGUGAUUUCGAAGCCTT against Slc17a9: 2.31
45) CGGUAUCUUGGUCAACCUGTT against Naaa: 0.955
46) GGUUCAAUUCACAGAGCGCTT against Mrpl21: 1.37
47) GCACAUGCAUGGCUCUAAGTT against Hinfp: 0.779
48) CCUUUGAAAAAGCUUGCCATT against Tor1aip2: 0.0385
49) GGCAUGGAAUCUGUUGUACTT against Olfr603: 2.45
50) GCAAUGGUUGAAGAAAUUUTT against Tnip3: 0.69

----------
- Assay name: Components of the Cytosolic LPS Sensing Pathway: Gene Identification via Genome-wide siRNA Screen;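 further: robust z of the log signal after scaling to non-targeting control siRNA wells of the plate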
- Experimental setup: RAW264.7 macrophages, IL-1a HTRF, actives lie on both sides, screened at 100 nM (by protocol), cells primed 5 h with Pam3CSK4 first
Screen size: about 53,000 sequences; about 3,700 (7%) were called active. Only a selection was taken, and actives are over-represented in it overall.
Endpoint: z-score

1. GGAACUGGAAGAGAAUGAGTT against Sdc4: 0.862
2. GGAAGAAUUCUUGAAGAUGTT against Cetn4: 1.13
3. GGCCUCAAUGCAGUAUCAATT against Shisal2b: 0.773
4. GGAGUCUUGUAAUGAGCUUTT against Zfp54: 0.898
5. GGCAAUGGCUUGGUCUUUUTT against Mapk6: 0.0141
6. GGUUCGACGAAGAUCAGAGTT against Akap1: -0.634
7. GGGCUCUUUAGUACUAGAATT against Spn: -0.612
8. GGAAUCGGUACUCUUCCACTT against Tcerg1l: 0.26
9. GGGUCAAGGUAGUAGUACCTT against Tob1: 0.275
10. GGGAAAGACCAUGUUUGUATT against Ttbk2: 0.493
11. CCGUGAAAAUCAGUAAUUATT against Cacybp: -0.546
12. GCAGUAGAUCCUGAUUUUGTT against Cdh12: -0.382

----------
- Assay name: Components of the Cytosolic LPS Sensing Pathway: Gene Identification via Genome-wide siRNA Screen;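 further: robust z of the log signal after scaling to non-targeting control siRNA wells of the plate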
- Experimental setup: RAW264.7 macrophages, IL-1a HTRF, actives lie on both sides, screened at 100 nM (by protocol), cells primed 5 h with Pam3CSK4 first
The whole screen tested about 53,000 sequences, of which about 3,700 (7%) were called active. Only a selection was taken, and actives are over-represented in it overall.
Overview of recorded z-score for various sequences
Endpoint: z-score

1) GGUGCUGCUUUAUUCCUGGTT against Dhcr7: -0.632
2) CGUAGCCGAGAAGACCCUATT against Shh: 0.0734
3) GGAGCUUGAAAUUGUCAUUTT against Magoh: -3.51
4) GCGGAGGAUAGAGCAAAUUTT against Upf3b: -0.0448
5) CCAAUGAGUUAAUCACCUUTT against Olfr1135: 0.587
6) GGAACCAAUCGGGAUUUUGTT against B330016D10Rik: 0.179

----------
- Assay name: Components of the Cytosolic LPS Sensing Pathway: Gene Identification via Genome-wide siRNA Screen;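 further: robust z of the log signal after scaling to non-targeting control siRNA wells of the plate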
- Experimental setup: RAW264.7 macrophages, IL-1a HTRF, actives lie on both sides, screened at 100 nM (by protocol), cells primed 5 h with Pam3CSK4 first
Among all 53,000 sequences or so, about 3,700 (7%) were called active.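 Rule for the calls: active = gene knockdowns whose robust z-score for IL-1 alpha signal is at least 2 or at most -2, so actives lie on both sides; inactive = the rest.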 Only a selection was taken, and actives are over-represented in it overall.
Outcomes: Yes (active), No (inactive)

1. CCCGGAUGAUGGAGAUAUUTT against Mnd1: No
2. GGCCCUAGAUGAGCACAAATT against Kcnh3: Yes
3. GGAAGUUUUUGAGAAUGGGTT against Ppp3cc: No
4. CGUUUUGUACAGAUAUACUTT against Fam3b: No
5. GGAGCCCAGGAAGAUGACATT against Cyp2c54: Yes
6. GGAGCCUCAGGUCCAAAUGTT against Fancd2os: No

----------
- Assay name: Components of the Cytosolic LPS Sensing Pathway: Gene Identification via Genome-wide siRNA Screen;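 further: robust z of the log signal after scaling to non-targeting control siRNA wells of the plate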
- Experimental setup: RAW264.7 macrophages, IL-1a HTRF, actives lie on both sides, screened at 100 nM (by protocol), cells primed 5 h with Pam3CSK4 first
The campaign covered roughly 53,000 sequences. About 3,700 (7%) were called active.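 Rule for the calls: active = gene knockdowns whose robust z-score for IL-1 alpha signal is at least 2 or at most -2, so actives lie on both sides; inactive = the rest.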 The sample as a whole holds a higher share of actives than the screen did.
Outcomes: YES = active, NO = inactive

1. GCCAUUUAUUGAAACUCGCTT against Becn1: NO
2. GGAAAUAAAACAGAUUUGGTT against Atpaf1: NO
3. CCUAUGUAACACAAACAUUTT against Orc5: NO
4. GGACAGGUGAAGAUAAGUATT against Mug2: NO
5. CGGUACAAGCUAGACCUCATT against Mettl26: NO
6. GGAUCACAGUCUCUUCGGUTT against Fgf20: NO
7. GCCUUUUAAUAGAUGUCAUTT against Vta1: NO
8. CGGUUUCACGAAUUCCUCCTT against Scaper: YES
9. GGCUAACCACAUUUGCUUCTT against Zic4: NO
10. CCCUAGUGCAGUGAUAACUTT against 1700016D06Rik: NO
11. GGAUGAAGAACUGACUCCGTT against Mboat2: NO
12. GGUUAUUAAGUAGCUUUUCTT against Dtx1: NO
13. GCGGUUUCGAACAAUCACGTT against Rab8a: YES
14. GCAUGUGGAGAAGAUGAGGTT against Tas2r143: NO
15. GGAGGCAGUGUUUUGUCAATT against Fgd4: NO
16. GUGGAAGACUUCACCGGACTT against Arxes1: YES
17. GCAUCUACUAUCCAAGUGATT against Alox8: YES
18. GGAUUUUGUGAAUAAAUGCTT against Map2k1: NO
19. GGAUCAACGGAUUUUAGAATT against Gcfc2: NO
20. GGCAAGUGCCCAAGUUUGUTT against Ifi35: NO
21. CCUACUACUUCGUUAUCCGTT against Chrna2: NO
22. GGCAAGUGAGGAAAAGAGGTT against Setd1a: NO
23. GCCCAAAGGUCAAGGAUAUTT against Rptn: NO
24. UGAAUCACCACCCGGAAUGTT against Pcbd2: NO
25. GGACCUAAAGAUAAUAAGUTT against Pex3: NO
26. GCGCACAAGCCUUACUAAATT against Zfp560: NO
27. GGAUACCAAGAUUCCAAAUTT against Pik3r4: YES
28. GCUCCUCACUUAUUGCCCATT against Zfp354b: NO
29. GGACAUCGGAUUCUACACCTT against Psg19: NO
30. GGAAAGCAGGACAAAAGGCTT against Mettl18: NO
31. GGCACAUCACUGCUUACCUTT against Rce1: NO
32. GGGCAUUGGUGACUUUGAATT against Hrob: YES
33. GGAGAAUGCCCUGAUAUAGTT against Hyal5: NO
34. GGGUUUCCUUAUGAGAAAGTT against Mien1: NO
35. GCAUGUUAAGCCUUGUAUATT against Tnpo1: NO
36. GGCUGCUUAGCUUUAAUGGTT against Ccdc177: NO
37. GGGAGAACAGCGACAAACATT against Cbfb: NO
38. GCCAUUAACUAUGGGACCUTT against Lck: NO
39. GGCUUUCUCCAAGCUAUAUTT against Tdgf1: NO
40. GGCACCCUCAAGAAAGCGUTT against Nol6: NO
41. CGGCAAUUUGAGUUGAAAATT against Ppp1r2-ps9: NO
42. GGAUCUUCGUACUAGAGGCTT against Cenpx: NO
43. GCUUUAAUUGUGAAAGCACTT against Miga1: YES
44. CGGCAGAAGGGUUUUUAUGTT against Rnf126: NO
45. GGAGAAAGCAGAAAUUGAATT against Mfap1a: NO
46. GGAGCUCAAACAGGAGAACTT against Lhfpl4: NO
47. GCCAAGAGUUUGAUAUAUATT against Plekhg3: NO
48. CCAUAUCUAUGAUAUGGUUTT against Piezo2: YES
49. GGACACAAAGAAGAAGAGGTT against Tarsl2: NO
50. GGAGGAAAGAAGUCCUACATT against Rnase2b: NO

Numbers sourced from PubChem BioAssay AID1508600.
